# Tested on: SR leukemia
# TEST_METHOD_NOTES: NCI-60 one-dose screen, 48 h
# TEST_CONDITIONS: 10 µM
# Experimental: Growth inhibition of the SR human tumor cell line is measured as a screen for anti-cancer activity. Cells are grown in 96 well plates and exposed to the test compound for 48 hours. Compounds are tested at a single concentration, which is 10^-5 M for most compounds. The reported endpoint is percent growth (GI% or GIPRCNT), where numbers from 0 - 100% represent growth inhibition, and numbers from -100% - 0 represent cell death. For example, a value of 40 represents 60% growth inhibition. […]
Compounds without any hit were thinned out: in the full panel of roughly 83,000, 20% have a hit. Active and inactive are the calls of the source. The calls were made as follows: active = growth percent below 10; inactive = the rest.
API: response.call in y = active, n = inactive

Reference set (2 entries):
| COMPOUND | CATEGORY_LABEL |
| --- | --- |
| CC12CCC3C(CC=C4CC(O)CCC43C)C1C/C(=C\N1CCOCC1)C2=O (centres undefined) | n |
| CC[C@H](C)[C@H](NC(=O)Nc1ccccc1)C(=O)N(C)[C@H](C[C@@H](OC(C)=O)c1nc(C(=O)N[C@@H](Cc2ccccc2)C[C@H](C)C(=O)OC)cs1)C(C)C | n |

-- ask Check the results log: what was the call for CCOc1c(Cl)cc(CNC(C)C(O)c2ccccc2)cc1OC (centres undefined) ?
-- reply n

-- ask Check the results log: what was the call for "COc1ccc(CN2CCN(Cc3ccccc3)CC2)c(O)c1" ?
-- reply n

-- ask Check the results log: what was the call for "CC(=O)Nc1ccc(Cc2ccc(NC(C)=O)cc2)cc1" ?
-- reply n

-- ask Check the results log: what was the call for "CC1(C)N=C(N)N=C(N)N1c1ccc(OCCCCNC(=O)Nc2cccc(S(=O)(=O)F)c2)c(Cl)c1" ?
-- reply n

-- ask Check the results log: what was the call for "CC(=O)[O][Hg][c]1ccccc1" ?
-- reply y

-- ask Check the results log: what was the call for "S=P(N1CCCCCC1)(N1CC1)N1CC1" ?
-- reply n

-- ask Check the results log: what was the call for C=CC(=O)NC(O)C(Cl)(Cl)Cl (centres undefined) ?
-- reply n

-- ask Check the results log: what was the call for OC1CCCCC1N1CCC(c2ccccc2)CC1 (centres undefined) ?
-- reply n

-- ask Check the results log: what was the call for "CC(C)Nc1ccc(Nc2ccccc2)cc1" ?
-- reply n

-- ask Check the results log: what was the call for "O=C(NCc1ccc([N+](=O)[O-])cc1)Nc1ccc(S(=O)(=O)F)cc1" ?
-- reply n

-- ask Check the results log: what was the call for "CCOC(=O)Nc1cc(Cl)c([N+](=O)[O-])c(NC(=O)OCC)n1" ?
-- reply y

-- ask Check the results log: what was the call for "O=[N+]([O-])c1ccc2cnn(CSP(=S)(c3ccccc3)c3ccccc3)c2c1" ?
-- reply y

-- ask Check the results log: what was the call for "Cc1cc([N+](=O)[O-])c(Cl)cc1NS(=O)(=O)c1ccccc1" ?
-- reply n

-- ask Check the results log: what was the call for "O=C(CCc1ccco1)NC1CCN(CC2(c3ccc(Cl)cc3)CCC2)CC1" ?
-- reply y

-- ask Check the results log: what was the call for CNC(C)Cc1ccccc1 (centres undefined) (tested in a mixture with another compound) ?
-- reply n

-- ask Check the results log: what was the call for ClCCN(CCCl)c1nc(Cl)c(C2CC(c3ccccc3)=NN2c2ccccc2)s1 (centres undefined) ?
-- reply n

-- ask Check the results log: what was the call for CC(=O)O[C@H]1C[C@H](O[C@H]2[C@@H](O)C[C@H](O[C@H]3[C@@H](O)C[C@H](O[C@H]4CC[C@@]5(C)C(CCC6C5C[C@@H](O)[C@]5(C)[C@@H](C7=CC(=O)OC7)CC[C@]65O)C4)O[C@@H]3C)O[C@@H]2C)O[C@H](C)[C@H]1O[C@@H]1O[C@H](CO)[C@@H](O)[C@H](O)[C@H]1O (some centres undefined) ?
-- reply y
